Test: physchem
Details: simulated gastric fluid (SGF), simulated gastric fluid, thermodynamic from solid, Solubility, SGF, time point 4 h, RT
outcomeMeasure: solubility at 4 h (µg/mL)
Please state the figure in µg/mL; there is no need to write the unit.

Query (compound): C=CC(=O)N1CCC[C@@H](n2nc(-c3ccc(Oc4ccccc4)cc3)c3c(N)ncnc32)C1 [Form I] ; field requested: solubility at 4 h 500

* * *

Assay: physchem
Conditions: simulated gastric fluid (SGF), simulated gastric fluid, thermodynamic from solid, Solubility, SGF, time point 24 h, RT
Procedure: 2. Add 3 mL of bio-relevant medium into each vial. 3. Cap the vials and keep all the suspension samples stirring at RT (room temperature) using a rolling incubator at a rate of 25 r/min. 4. Sample at 1 h, 4 h and 24 h respectively. […] 5. Centrifuge filtration tubes at a rate of 8500 rpm for 3 minutes at RT, collect 0.2 mL of supernatant for HPLC quantification determination and collect the rest of solution for pH measurement, and separate the solid for XRPD characterization.
outcomeMeasure: solubility at 24 h (µg/mL)
Please state the figure in µg/mL; there is no need to write the unit.

Query (molecule): C=CC(=O)N1CCC[C@@H](n2nc(-c3ccc(Oc4ccccc4)cc3)c3c(N)ncnc32)C1 [Form I] ; field requested: solubility at 24 h 480

* * *

Test: physchem
Conditions: simulated gastric fluid (SGF), simulated gastric fluid, thermodynamic from solid, Solubility, SGF, time point 1 h, RT
outcomeMeasure: solubility at 1 h
I'd appreciate it if you wrote the number followed by its unit.

Query (compound): C=CC(=O)N1CCC[C@@H](n2nc(-c3ccc(Oc4ccccc4)cc3)c3c(N)ncnc32)C1 [Form I] ; field requested: solubility at 1 h 500 µg/mL
